test system: EfPiwi piRISC loaded with piRNA #1 (26 nt); experiment: pre-steady-state target cleavage rate (min^-1); auxiliary factor: 500 nM Ephydatia muelleri Gtsf1; guide: piRNA #1 5'p-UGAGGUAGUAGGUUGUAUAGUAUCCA; higher = faster piRNA-guided slicing of the target
OBSERVABLE: pre-steady-state target cleavage rate
Could you keep your reply to the number by itself?

GGAGACCUUACUAUACAUCCUACUACCACA :: 0.0038

Give pre-steady-state target cleavage rate for GGAGUGGAUACAAUACAACCUACUACCUGA
0.00396

---

system: MILI (PIWIL2) piRISC loaded with L1MC piRNA (26 nt); assay: pre-steady-state target cleavage rate (min^-1); guide: L1MC piRNA 5'p-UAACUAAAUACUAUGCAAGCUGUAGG; higher = faster piRNA-guided slicing of the target; conditions: auxiliary factor: 500 nM mouse GTSF1;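 further: 1 nM active piRISC with 0.1 nM target library at 33 °C single turnover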
Reported pre-steady-state target cleavage rate by item:
Could you keep your reply to the number by itself?

UCCUGGUACAGGUUGCAUAGUAUUUAGAUA :: 0.195
UCCUCCUAGACCUUGCAUAGUAUUUAGUUA :: 0.237
UCCUGGAACAGGUUGCAUAGUAUUAAGUUA :: 0.213
UCCUGGAUGUGGAUGCAUAGUAUUUAGUAA :: 0.0714
UCCUGGAACAGCUACCAUAGUAUUUAGUUA :: 0.174

Give pre-steady-state target cleavage rate for UCCUGCUACAGCUUGCAUAGUUUUUACAAA
0.0689

---

test system: MILI (PIWIL2) piRISC loaded with L1MC piRNA (26 nt); assay: pre-steady-state target cleavage rate (min^-1); guide: L1MC piRNA 5'p-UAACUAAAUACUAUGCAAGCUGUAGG; higher = faster piRNA-guided slicing of the target; conditions: auxiliary factor: 500 nM mouse GTSF1;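 further: 1 nM active piRISC with 0.1 nM target library at 33 °C single turnover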
Reported pre-steady-state target cleavage rate by item:
Could you keep your reply to the number by itself?

Some sequences with known pre-steady-state target cleavage rate results, for comparison:
UCCUGGAUGUCGUUGCAUAGUAUUUAGUA :: 0.148
UCCUCCUACAGCUUGCAAACUAUUUAGUUA :: 0.0393

Give pre-steady-state target cleavage rate for UCCUGCUACAGCUUGCUUAGUAUUUUGUUA
0.156

Give pre-steady-state target cleavage rate for UCCUGGUUCAGCUUGCAAAGUAUUUAGUUA
0.137

Give pre-steady-state target cleavage rate for UCCUGGAUGUCCUUGGAUAGUAUUUAGUUA
0.153

Give pre-steady-state target cleavage rate for UCCUGGAUGUGGUUGCUUAGUAUUUAGUUA
0.107

Give pre-steady-state target cleavage rate for UCCUGGAUCAGCUUGCAUAGUAUUAAGUUA
0.262

Give pre-steady-state target cleavage rate for UCCUGGAUGUCGUAGCAUAGUAUAUAGUUA
0.0653

Give pre-steady-state target cleavage rate for UCCUGGUACAGCUUGCAUAGUAAAUAGUUA
0.238

Give pre-steady-state target cleavage rate for UCCUCCUACAGCUUGCAUGAGUAUUUAGUUA
0.011

Give pre-steady-state target cleavage rate for UCCUGCUACAGCUUCCAUAGUAUUUAGUAA
0.0172

Give pre-steady-state target cleavage rate for UCCUGGUACAGCUUGCUUUGUAUUUAGUUA
0.123

---

Reported pre-steady-state target cleavage rate by item:
test system: MILI (PIWIL2) piRISC loaded with L1MC piRNA (26 nt); experiment: pre-steady-state target cleavage rate (min^-1); guide: L1MC piRNA 5'p-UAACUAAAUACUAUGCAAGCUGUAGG; higher = faster piRNA-guided slicing of the target; settings: auxiliary factor: none (no GTSF1);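 further: 1 nM active piRISC with 0.1 nM target library at 33 °C single turnover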
Could you keep your reply to the number by itself?

UCCUGGAUGUCCUUGCAGAGUAUUUAGUUA :: 0.00501
UCCUGCUACGCUUGCAUAGUAUUUAGUUA :: 0.0067
UCCUGGAACAGCUUGCAUAGUAUUUAGUUU [g2:g23:cont:t1U] :: 0.0155
UCCUGGAUGUGCUUGCAAAGUAUUAAGUUA :: 0.0052
UCCUGCUACAGCUUGCAUAGUAGUUUAGUUA :: 0.0034

Give pre-steady-state target cleavage rate for UCCUGCUACAGCUUGCACAGUAUUUAGUUA
0.00803

Give pre-steady-state target cleavage rate for UCCUGCUACAGCUUGCAUAGUGUUUAGUUA
0.00436

Give pre-steady-state target cleavage rate for UCCUGCUACUGCUUGCAUAGAAUUUAGUUA
0.00256

Give pre-steady-state target cleavage rate for UCCUGGAUGUGCAUUGCAUAGUAUUUAGUUA
0.0119

Give pre-steady-state target cleavage rate for UCCUGGAACAGCUUGCAAAGUAUUAAGUUA
0.00516

Give pre-steady-state target cleavage rate for UCCUCCUAGACCUUGCAUAGUAUUUAGUUA
0.00751

Give pre-steady-state target cleavage rate for UCCUGGAUGUCCUUGCUUAGUAAUUAGUUA
0.00598

Give pre-steady-state target cleavage rate for UCCUGGUACAGCUUGCAUGUAUUUAGUUA
0.00417

---

system: MILI (PIWIL2) piRISC loaded with L1MC piRNA (26 nt); experiment: pre-steady-state target cleavage rate (min^-1); guide: L1MC piRNA 5'p-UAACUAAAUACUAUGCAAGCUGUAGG; higher = faster piRNA-guided slicing of the target; conditions: auxiliary factor: 500 nM mouse GTSF1;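 further: 1 nM active piRISC with 0.1 nM target library at 33 °C single turnover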
OBSERVABLE: pre-steady-state target cleavage rate
Could you keep your reply to the number by itself?

Some sequences with known pre-steady-state target cleavage rate results, for comparison:
UCCUCCUACACCUUGCAUAGUAUUUUGUUA :: 0.101
UCCUGGAUGUGCUAGCAUACUAUUUAGUUA :: 0.0195
UCCUGGAACAGGUUGCAUAGUAAUUAGUUA :: 0.206
UCCUGGAGCAGCUUGCAUAGUAUUUAGUUA :: 0.333
UCCUCCUUCAGCUUGCAUAGAAUUUAGUUA :: 0.0772
UCCUGGAACAGCUUGCAUACUAUUAAGUUA :: 0.0333
UCCUGGAUGUGCUUGCAUUGUAUUUAGAAA :: 0.0114
UCCUGCUACAGCUUGCAAACUAUUUAGUUA :: 0.048
UCCUCCUACACGUUGCAUAGUAUUUACAAA :: 0.062
UCCUGGAUGUGCUUGGAUAGUAUUUUGUUA :: 0.0685

Note: attention shifts to another entry.
Give pre-steady-state target cleavage rate for UCCUGCUACAGCUUGCAAAGUAUAUAGUUA
0.0886

---

tested on: MILI (PIWIL2) piRISC loaded with L1MC piRNA (26 nt); assay: pre-steady-state target cleavage rate (min^-1); guide: L1MC piRNA 5'p-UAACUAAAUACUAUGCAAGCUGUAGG; higher = faster piRNA-guided slicing of the target; details: auxiliary factor: 500 nM mouse GTSF1;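 further: 1 nM active piRISC with 0.1 nM target library at 33 °C single turnover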
Categorized via pre-steady-state target cleavage rate: lower bin = under 0.09, middle bin = from 0.09 up to 0.2, upper bin = 0.2 and over

# bin label for UCCUGGAUGAGCUUGCAUAGUAAUUAGAUA
lower bin

---

test system: MILI (PIWIL2) piRISC loaded with L1MC piRNA (26 nt); assay: pre-steady-state target cleavage rate (min^-1); guide: L1MC piRNA 5'p-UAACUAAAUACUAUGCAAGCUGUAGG; higher = faster piRNA-guided slicing of the target; conditions: auxiliary factor: 500 nM mouse GTSF1;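 further: 1 nM active piRISC with 0.1 nM target library at 33 °C single turnover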
Reported pre-steady-state target cleavage rate by item:
Could you keep your reply to the number by itself?

Give pre-steady-state target cleavage rate for UCCUCCUACAGGUUGCAUACUAUUUAGUUA
0.0492

Give pre-steady-state target cleavage rate for UCCUGGAUCAGCUUGCAAAGUAUUUAGUUA
0.151

Give pre-steady-state target cleavage rate for UCCUGGAUGUGCUUGCUUAGUAUUUAGUAA
0.0779

---

tested on: MILI (PIWIL2) piRISC loaded with L1MC piRNA (26 nt); assay: pre-steady-state target cleavage rate (min^-1); guide: L1MC piRNA 5'p-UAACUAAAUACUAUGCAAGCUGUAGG; MIWI and MILI are mouse PIWI proteins and EfPiwi is from a freshwater sponge; tags in brackets are library labels; higher = faster piRNA-guided slicing of the target; details: auxiliary factor: 500 nM mouse GTSF1;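 further: 1 nM active piRISC with 0.1 nM target library at 33 °C single turnover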
Label scheme for pre-steady-state target cleavage rate: lower than 0.1 is Criterion not met, 0.1 and above is Criterion met.

UCCUGCUACAGCUUGCAUUGUAAUUAGUUA :: Criterion met

Kindly determine if pre-steady-state target cleavage rate recorded for UCCUGGAUCAGCUUGCAUAGUAUAUACUUA is above or exactly 0.1.
Criterion not met

Kindly determine if pre-steady-state target cleavage rate recorded for UCCUCCUACAGCUUGCAUAGUUUUUAGUUA is above or exactly 0.1.
Criterion not met

Kindly determine if pre-steady-state target cleavage rate recorded for UCCUGGAUGAGCUUGCAUAGUAUUAUAGUUA is above or exactly 0.1.
Criterion met

Kindly determine if pre-steady-state target cleavage rate recorded for UCCUGGAAGAGCUUGCAUUGUAUUUAGUUA is above or exactly 0.1.
Criterion met

Kindly determine if pre-steady-state target cleavage rate recorded for UCCUGGAUCAGCUUGCAUAGUGAUUUAGUUA is above or exactly 0.1.
Criterion not met
